Data origin, for the record: ChEMBL document CHEMBL1629497

readout: pKi
Hey, just a heads up that pKi is the negative log base 10 of the concentration in molar.

The reported pKi value, Cannabinoid receptor 1 (Homo sapiens, UniProt P21554), for CCCCCCCNC(=O)c1nn(-c2ccc(Cl)cc2Cl)c(-n2c(C)ccc2C)c1C reads 7.01

Reported pKi (Cannabinoid receptor 1 (Homo sapiens, UniProt P21554)) for entry Cc1c(C(=O)NCCC(C)(C)C)nn(-c2ccc(Cl)cc2Cl)c1-n1c(C)ccc1C is 7.43

Query Cc1c(C(=O)NC(C)(C)C)nn(-c2ccc(Cl)cc2Cl)c1-n1c(C)ccc1C on Cannabinoid receptor 1 (Homo sapiens, UniProt P21554); pKi returned: 6.82

The reported Cannabinoid receptor 1 (Homo sapiens, UniProt P21554) pKi of CCCNC(=O)c1nn(-c2ccc(Cl)cc2Cl)c(-n2c(C)ccc2C)c1C is 6.54

Sample CCCCCCNC(=O)c1nn(-c2ccc(F)cc2F)c(-n2c(C)ccc2C)c1C , system: Cannabinoid receptor 1 (Homo sapiens, UniProt P21554). Its pKi is 6.51

# pKi measured on Cannabinoid receptor 1 (Homo sapiens, UniProt P21554) for item Cc1c(C(=O)NC(C)C)nn(-c2ccc(Cl)cc2Cl)c1-n1cccc1 = 6.28
